Give Percent Effect for every item shown.
- system name: Aspartate--tRNA(Asp/Asn) ligase (Mycobacterium tuberculosis (strain ATCC 25618 / H37Rv)) (UniProt P9WFW3)
- Sequence (P9WFW3 whole entry): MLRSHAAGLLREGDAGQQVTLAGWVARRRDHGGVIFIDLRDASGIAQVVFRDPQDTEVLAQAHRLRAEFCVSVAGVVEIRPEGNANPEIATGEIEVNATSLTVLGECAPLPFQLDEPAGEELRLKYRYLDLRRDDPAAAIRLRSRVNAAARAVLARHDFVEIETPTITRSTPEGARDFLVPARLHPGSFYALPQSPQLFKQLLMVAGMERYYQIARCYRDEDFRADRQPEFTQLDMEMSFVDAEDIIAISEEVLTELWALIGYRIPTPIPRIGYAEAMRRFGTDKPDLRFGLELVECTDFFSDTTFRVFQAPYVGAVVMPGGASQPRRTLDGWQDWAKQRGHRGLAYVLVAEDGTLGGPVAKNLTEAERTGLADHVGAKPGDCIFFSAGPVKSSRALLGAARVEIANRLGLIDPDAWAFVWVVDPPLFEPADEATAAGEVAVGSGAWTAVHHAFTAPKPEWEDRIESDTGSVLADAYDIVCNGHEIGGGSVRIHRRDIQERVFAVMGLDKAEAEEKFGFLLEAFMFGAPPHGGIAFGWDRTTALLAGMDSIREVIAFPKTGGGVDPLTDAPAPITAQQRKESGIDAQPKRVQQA
- measurement protocol: Assay for Asp RNA synthetase-1 from Mycobacterium tuberculosis
- Format: functional
- Design: scale not given: in the data most compounds retested in dose-response had high values
- condition parameters: 30 µM
Numbers only, in %.

Report Percent Effect for each item below.
1. Cc1cnn(CC2CN(CCN3CCCC3=O)CCO2)c1 (configuration not stated)
2. Fc1ccccc1-c1noc2c1CN(CC1CC1)CC2
3. O=C(NCCn1ccnc1)c1cccc(F)c1
4. Nc1nccc(N2CCC(Cc3ccccc3Cl)(C(=O)O)CC2)n1
5. CN(C)C(=O)COC[C@]12COC[C@H]1CN(CC1CCC1)C2
6. CN1CCN(Cc2cnc3n2CCN(Cc2cccs2)C3)CC1

-4.53
-1.29
3.65
-0.368
-8.17
5.52

Report Percent Effect for each item below.
1. O=C1CCC2(CCN(c3ncc(F)cn3)CC2)N1CCN1CCCC1
2. CC(=O)N1C[C@@H](c2ccsc2)[C@@H]2CN(Cc3ccccc3)CC[C@@H]21
3. COCC(NC(=O)c1cnn(C)c1)c1cccc(C(F)(F)F)c1 (configuration not stated)
4. CN(C)CCNC(=O)c1cc(-c2cnc(N3CCCC3)nc2)cn1C
5. CCCOc1cc(CNC(=O)Nc2cccnc2N2CCCC2)ccn1
6. Cc1cnnn1Cc1ncn2c1CN(Cc1cccs1)CCC2

1. 1.53
2. 2.13
3. -1.9
4. -0.309
5. 1.75
6. -1.27
